condition_parameters: buffer; pH 7.4; 200.0 µM
Provide the recorded solubility kinetic for the entries that follow.
Answers are plain numbers, in µg/mL.

Record excerpt, results attached:
>>> result_value("COc1ccc(CCC(=O)OCC(=O)Nc2sccc2C#N)cc1")
22.9
>>> result_value("Cc1[nH]c(=O)nc(SCc2ccc(Cl)c(Cl)c2)c1C#N")
3.4

I need solubility kinetic for every entry listed below, if you could help.
1. CC1CCCC(C)N1C(=O)CSc1nc2ccccc2c(=O)[nH]1 (configuration not stated)
2. CCn1cc(CN2CCN(C)C(CCO)C2)c2ccccc21 (configuration not stated)
3. Nc1ccc(Oc2ccc(F)cc2)nc1

27.6
45
27.6

---

condition_parameters: buffer; pH 7.4; 200.0 µM
readout_label: solubility kinetic (µg/mL)
Answers are plain numbers, in µg/mL.

Past entries and their recorded results:
>>> result_value("CCOc1ccc(-c2ncncc2-c2ccccc2OC)c(O)c1")
34
>>> result_value("O=C(Nc1cc2c3c(c1)CC(=O)N3CCC2)c1ccc(Br)cc1")
10.3
>>> result_value("CCOC(=O)CNc1nc(Cl)nc(N2CCCCC2)n1")
12.3
>>> result_value("Nc1nc(Nc2ccccc2)nc(NCCO)c1[N+](=O)[O-]")
38
>>> result_value("COc1cccc(C(=O)CC(C#N)c2ccc(F)cc2)c1 (stereo not given)")
16

Could I get solubility kinetic for every one of these entries?
1. CCOc1ccccc1OCC(=O)Nc1nc2ccccc2[nH]1
2. CCOc1ccc2nc(NS(=O)(=O)c3cccs3)sc2c1
3. CC(=O)Nc1ccc(NC(=O)CC23CC4CC(CC(C4)C2)C3)cc1

1. 4.1
2. 9.9
3. 21.3

Give solubility kinetic for each listed item.
1. CN(CC(=O)Nc1cccc(F)c1)C(=O)CC1CC2CCC1C2 (stereo not given)
2. Cc1ccc2oc(=O)c(/C=C(\O)c3ccco3)nc2c1

1. 4
2. 31.7

Record solubility kinetic for all entries; do not skip any.
1. COc1ccc(NC(=O)C#Cc2ccccc2)cc1
2. Cc1ccccc1Cn1cnc2c(oc3ccccc32)c1=O

[5.2, 0.9]

---

For each of the compounds below, state its solubility kinetic.
condition_parameters: buffer; pH 7.4; 200.0 µM
Give bare numbers, in µg/mL.

>>> result_value("O=c1[nH]sc2cc(F)ccc12")
22.7

Could you report solubility kinetic for every entry in the following list?
1. CCCCC(C(=O)NC(C)c1ccccc1)C(=O)NC(C)c1ccccc1 (stereo unspecified)
2. Cc1ccc2[nH]c(CNC(=O)c3ccccc3F)cc2c1
3. COc1cc2sc(C)nc2cc1C
4. N/C(=N\OC(=O)c1ccc([N+](=O)[O-])cc1)c1ccccn1

[1.5, 5.4, 4.8, 3.2]

---

condition_parameters: buffer; pH 7.4; 200.0 µM
Label satisfied for high-side solubility kinetic (at or above 40 µg/mL) and not satisfied for low-side solubility kinetic (below it).

Solved cases (3 shown):
>>> class("O=C(NNC(=O)c1ccncc1)Nc1cccc([N+](=O)[O-])c1")
"satisfied"
>>> class("COc1ccc(NC(=O)NCCN2CCCCC2)cc1")
"not satisfied"
>>> class("CCN(CC)c1cc(C)c2cc(NC(=O)c3ccccc3F)ccc2n1")
"not satisfied"

Textbook exercise: given the entry Cc1ccc(C(=O)Nc2nccs2)s1 , state whether its solubility kinetic is greater than or equal to 40 µg/mL.
not satisfied

Given the entry Cc1cc(C)n(CC(=O)N2CCc3ccccc32)c(=O)c1C#N , answer whether its solubility kinetic meets or surpasses 40 µg/mL.
not satisfied

Please check the record CN1CCN(C(=O)CCN2C(=O)/C(=C\c3ccc(F)cc3)SC2=S)CC1 and state if its solubility kinetic is at or above 40 µg/mL.
not satisfied

Threshold query (solubility kinetic >= 40 µg/mL) on Cc1ccc(NC(=O)CN(C)C(=O)C2COc3ccccc3O2)cc1 (stereo not given)
satisfied
